Test: E-selectin induction blockers in HUVEC – imaging, immunofluorescence, high content, primary screen (AID 1246);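 note: 0% = TNF-stimulated DMSO wells and 100% = unstimulated control wells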
Settings: HUVEC TNFa-induced E-selectin immunofluorescence, at 2 µM, stronger effect = higher value
The whole screen tested about 120,000 compounds, of which about 840 (0.7%) were called active. The entries come from a sample that favours actives as a whole.
quantity: inhibition

Worked examples, 5 compounds total:
Clc1ccc(CN2CCN(/N=C/c3cccnc3)CC2)cc1 | -6.01% (inactive)
CN1CCN(CCCCOc2ccccc2-c2ccccc2)CC1 | -23.6% (inactive)
Cc1ccc(C(=O)N/C(=C\c2cccs2)C(=O)NCCc2ccccn2)cc1C | -0.32% (inactive)
CCN(CC)CCNC(=O)c1ccc(NC(=O)c2c(F)cccc2Cl)cc1 | -1.94% (inactive)
Cc1ccc(C(c2nnnn2CS(=O)(=O)c2ccc(C)cc2)N2CCC(C(N)=O)CC2)cc1 (configuration not stated) | -22.9% (inactive)

Reported inhibition of CCn1c(COc2ccccc2)nnc1SCC(=O)NCc1ccco1 : -14.4% (inactive)

Query C=CCC(C(=O)c1ccccc1)[N+](C)(C)CC=C (configuration not stated) yields inhibition of -21.6% (inactive)

inhibition reported for this compound O=C(CCSc1ccccc1)N1CCN(c2ccccc2F)CC1 : -7.82% (inactive)

The compound Cn1c(SCC(=O)Nc2ccc(Br)cc2F)nnc1-c1ccco1 showed inhibition equal to -23.6% (inactive)

Entry Oc1ccc(-c2nncn2-c2ccccc2)cc1 — recorded inhibition = -13.7% (inactive)

Entry CC(C)C(c1nnnn1Cc1ccccc1)N1CCC(C(N)=O)CC1 (configuration not stated) — recorded inhibition = 100% (active)

Per the records, this compound ( Cc1ccc(CNC(=O)c2cccnc2Cl)cc1 ) has inhibition equal to -5.85% (inactive)

###

Below, each entry is listed with its recorded inhibition.
Assay: E-selectin induction blockers in HUVEC – imaging, immunofluorescence, high content, primary screen (AID 1246);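 note: 0% = TNF-stimulated DMSO wells and 100% = unstimulated control wells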
Conditions: HUVEC TNFa-induced E-selectin immunofluorescence, at 2 µM, stronger effect = higher value
The campaign covered roughly 120,000 compounds. About 840 (0.7%) were called active. The sample holds actives, similar compounds and a random draw of the others, so the mix is not that of the screen.
Field format: number, assumed %, no unit text.

The examples below pair each entry with its known result.
CCc1nnc(NC(=O)CCCSc2nc3ccccc3[nH]2)s1 | -35.3
CCN(CC)CCNS(=O)(=O)c1ccc(/C=C/C(=O)O)cc1 | 85.3
CCOC(=O)c1c(-c2ccc(C)cc2C)csc1NC(=O)CSc1nnnn1C | -25.1
CCc1ccc(NC(=O)Cn2nc(C)c([N+](=O)[O-])c2C)cc1 | 24.3
COCCNC(=O)CN(C(=O)CCC(=O)Nc1cc(C)on1)c1ccc(C)cc1C | -15.2

According to the records, this molecule Cc1ccc(N2CCN(C3=NC(=O)/C(=C\c4cccs4)S3)CC2)cc1 displays inhibition of -36.9

The recorded inhibition for C=CCN(CC=C)CCOc1ccccc1[N+](=O)[O-] is -5.8

Measured inhibition, CCOC(=O)c1nc(C)n(-c2ccc(Cl)cc2Cl)n1 : -32.4

The measured inhibition associated with CC(=O)NCCC(=O)Nc1cc(S(=O)(=O)N2CCOCC2)ccc1N1CCOCC1 reads -13.3

###

Experiment: E-selectin induction blockers in HUVEC – imaging, immunofluorescence, high content, primary screen (AID 1246);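 note: 0% = TNF-stimulated DMSO wells and 100% = unstimulated control wells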
Details: HUVEC TNFa-induced E-selectin immunofluorescence, at 2 µM, stronger effect = higher value
Hit rate of the full screen: of about 120,000 compounds, about 840 (0.7%) were called active. Only a selection was taken, and actives are over-represented in it overall.
Would you mind labelling by inhibition? At or over 70% is label 1, under is label 0.

Here's what some known entries look like.
CC(=O)Oc1cccc(N2C(=O)C3CC=C(Cl)CC3C2=O)c1 (stereo not given) | label 0
CCN(CC)S(=O)(=O)c1ccc(N(C)CCc2ccc(OC)c(OC)c2)nc1 | label 0
Cc1cccc(C)c1NC(=O)C1CCCN1C(=O)OC(C)(C)C (stereo not given) | label 0

Now, please, on to the next compound.
Input line: Quick check: does Cc1ccc(SCC(=O)NC(=O)NCc2ccco2)c(C)c1 have inhibition greater than or equal to 70%?
Output line: label 1

###

Test: E-selectin induction blockers in HUVEC – imaging, immunofluorescence, high content, primary screen (AID 1246);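 note: 0% = TNF-stimulated DMSO wells and 100% = unstimulated control wells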
Conditions: HUVEC TNFa-induced E-selectin immunofluorescence, at 2 µM, stronger effect = higher value
About 840 (0.7%) of roughly 120,000 compounds were called active. The entries come from a sample that favours actives as a whole.
Listing of entries alongside the reported inhibition.
Report the figure in % without appending any unit label.

CC(=O)c1cccc(NC(=O)Nc2ccc(C)cc2)c1 | 8.52

The molecule CC1(c2ccccc2Cl)NC(=O)N(CC(=O)NC(=O)NCc2ccco2)C1=O (centres undefined) showed inhibition equal to 23.7

Memo: COc1ccc(-c2nnn(Cc3nc(N)nc(N4CCCCC4)n3)n2)cc1 , reported inhibition: -40.4

For this molecule ( O=C(CCCN1C(=O)c2cccc3cccc(c23)C1=O)N1CCN(Cc2ccc3c(c2)OCO3)CC1 ), measured inhibition is -25.6

###

Experiment: E-selectin induction blockers in HUVEC – imaging, immunofluorescence, high content, primary screen (AID 1246);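 note: 0% = TNF-stimulated DMSO wells and 100% = unstimulated control wells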
Settings: HUVEC TNFa-induced E-selectin immunofluorescence, at 2 µM
The campaign covered roughly 120,000 compounds. About 840 (0.7%) were called active.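 The calls were made as follows: active = inhibition above the batch mean plus 3 SD, and confirmed as a hit on visual image review (cut at about 43% in these data); inconclusive = passes the inhibition cutoff but fails visual image review; inactive = the rest.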 The full list was thinned out, with actives kept by preference.
Select the correct class. Options are TRUE (active), FALSE (inactive) and nothing else.

Please review the following examples before continuing.
Cc1cc(Cl)ccc1N1C(=O)CC(SCCC(=O)O)C1=O (stereo not given) | FALSE
C(=N/N1CCN(c2ccccc2)CC1)/c1cccs1 | FALSE
COc1ccc(NC(=O)CCNS(=O)(=O)c2ccc3c(c2)c(=O)n(C)c(=O)n3C)cc1OC | FALSE
Cc1cc(OC(=O)c2ccccc2)c([N+](=O)[O-])c(=O)[nH]1 | FALSE
Cc1ccc(CN2CCN(Cc3ccc4ncccc4c3)CC2CCO)cc1 (stereo not given) | FALSE
Cc1cc(C)nc(/N=C2\NC(=O)CC(C(=O)O)N2c2ccc(Cl)cc2Cl)n1 (stereo not given) | TRUE

Input line: Which outcome was entered for the compound O=C(Cc1cccs1)Nc1nnc(SCc2ccc(F)cc2)s1 in this test?
Output line: FALSE

Input line: What is the recorded call for this compound in the test? COCCNC(=O)/C(C#N)=C/c1nc(N(C)C)n(-c2ccc(F)cc2)c1Cl
Output line: FALSE

Input line: Called result for CCOC(=O)N1CCC(=NNC(N)=O)CC1
Output line: FALSE

Input line: Hi team, can someone confirm the assay call for O=C(O)CCCCOn1ccnc1 ?
Output line: FALSE

Input line: Test call, this compound: O=S(=O)(NCCNS(=O)(=O)c1ccccc1)c1ccccc1
Output line: FALSE

Input line: Recorded test call requested for O=C(N/N=C/c1cc2c(cc1Br)OCO2)C1COc2ccccc2O1 (stereo not given)
Output line: FALSE

Input line: Per the assay record, what outcome was assigned to CCOc1cc(-c2nc3cc(C)ccn3c2NCC2CCCO2)ccc1O (stereo not given) ?
Output line: FALSE

Input line: Entry Cc1ccc(N2CCN(/N=C/c3cccs3)CC2)cc1 : call = ?
Output line: TRUE

Input line: Recorded test outcome, item CC1CC(C)CN(S(=O)(=O)c2ccc(C(=O)NN3CCOCC3)cc2)C1 (stereo not given)
Output line: FALSE

###

The entries below are paired with their reported inhibition.
Experiment: E-selectin induction blockers in HUVEC – imaging, immunofluorescence, high content, primary screen (AID 1246);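 note: 0% = TNF-stimulated DMSO wells and 100% = unstimulated control wells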
Settings: HUVEC TNFa-induced E-selectin immunofluorescence, at 2 µM, stronger effect = higher value
The whole screen tested about 120,000 compounds, of which about 840 (0.7%) were called active. Only a selection was taken, and actives are over-represented in it overall.

C=CCN(CC=C)C(=O)COC(=O)c1n[nH]c2ccccc12 | -73.3% (inactive)

Would you kindly look at the next entry?
Noted for COc1ccc(-c2nc3cnccn3c2NC(C)(C)CC(C)(C)C)cc1O : its inhibition reads 78.6% (active)

###

Assay: E-selectin induction blockers in HUVEC – imaging, immunofluorescence, high content, primary screen (AID 1246);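 note: 0% = TNF-stimulated DMSO wells and 100% = unstimulated control wells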
Conditions: HUVEC TNFa-induced E-selectin immunofluorescence, at 2 µM, stronger effect = higher value
The campaign covered roughly 120,000 compounds. About 840 (0.7%) were called active. This excerpt belongs to a sample that is enriched for actives.
Please mark Met if the recorded inhibition is equal to or greater than -20%, and Not met if it falls below.

Worked examples follow.
COc1ccc(Sc2nc(-c3ccccc3)ncc2OC)cc1 | Met
COc1cccc(C(=O)Oc2cc(C)[nH]c(=O)c2[N+](=O)[O-])c1 | Met
CSc1ncccc1C(=O)N1CCCC(CCC(=O)NCc2ccccc2F)C1 (stereo not drawn) | Not met
COc1ccc(C(=O)Nc2ccc(S(=O)(=O)NC(C)C)cc2)cc1 | Met

Input line: // inclusive: inhibition at least -20%? input: CCN1CCN(CC(=O)Nc2sc3c(c2C#N)CCC3)CC1
Output line: Met

Input line: Textbook exercise: given the entry Cc1cc(C)n2nc(C(=O)N(C)C(c3ccccc3)c3ccccc3)nc2n1 , state whether its inhibition is greater than or equal to -20%.
Output line: Met

Input line: Can Nc1ccc(S(=O)(=O)Nc2nccc(/C=C/c3ccc(Br)s3)n2)cc1 be said to have inhibition at or above -20%?
Output line: Met
